Could you please report measured inhibition at 1.1 µM for the items listed next?
# study_system: HIV-1 protease (Human immunodeficiency virus type 1 group M subtype B)
# assay_procedure: biochemical
# details: read-out: HIV-1 Protease % Inhib, dose 1.100 uM
Write it as a number; the unit % goes unstated.

Field inhibition at 1.1 µM (HIV-1 protease (Human immunodeficiency virus type 1 group M subtype B)), entry CC(C)c1ccc(S(=O)(=O)Nc2cccc(C(c3c(O)c4c(oc3=O)CCCCCC4)C3CC3)c2)cc1 (stereo not shown) : 90.4

Bench note, HIV-1 protease (Human immunodeficiency virus type 1 group M subtype B): entry O=c1oc2c(c(O)c1C(c1cccc(NS(=O)(=O)c3ccc(NO)cc3)c1)C1CC1)CCCCCC2 (stereo not shown) [Example 348 (Second Title Compound)] , its inhibition at 1.1 µM = 102

Field inhibition at 1.1 µM (HIV-1 protease (Human immunodeficiency virus type 1 group M subtype B)), entry CN(C)c1ccc(N=Nc2ccc(S(=O)(=O)Nc3cccc(C(c4c(O)c5c(oc4=O)CCCCCC5)C4CC4)c3)cc2)cc1 (stereo not shown) : 82.5

Readout inhibition at 1.1 µM for Cc1ccc(S(=O)(=O)Nc2cccc(C(c3c(O)c4c(oc3=O)CCCCCC4)C3CC3)c2)cc1 (stereo not shown) , test system HIV-1 protease (Human immunodeficiency virus type 1 group M subtype B), was 95.6

Observed inhibition at 1.1 µM, HIV-1 protease (Human immunodeficiency virus type 1 group M subtype B), CC(C)CC(c1cccc(NS(=O)(=O)c2ccc(C#N)cc2)c1)c1c(O)c2c(oc1=O)CCCCCC2 (stereo not shown) : 109

Entry O=c1oc2c(c(O)c1C(c1cccc(NS(=O)(=O)c3cccc(N(CCO)CCO)c3)c1)C1CC1)CCCCCC2 (stereo not shown) [Example 355 (Second Title Compound)] : inhibition at 1.1 µM on HIV-1 protease (Human immunodeficiency virus type 1 group M subtype B) = 107

O=c1oc2c(c(O)c1C(c1cccc(NS(=O)(=O)c3cccc(Cl)c3Cl)c1)C1CC1)CCCCCC2 (stereo not shown) tested on HIV-1 protease (Human immunodeficiency virus type 1 group M subtype B) gave inhibition at 1.1 µM: 84.6

Where these numbers come from: patent US5686486A
